# testSystem: FXR ligand binding domain (GST-FXR LBD fusion protein, human FXR aa 193-473) (Homo sapiens, UniProt Q96RI1)
# Construct: fused on or other part: Glutathione-S-transferase (GST) fused N-terminally to the FXR LBD, used to capture the protein on glutathione SPA beads
# Sequence (Q96RI1 211-486 limits assumed): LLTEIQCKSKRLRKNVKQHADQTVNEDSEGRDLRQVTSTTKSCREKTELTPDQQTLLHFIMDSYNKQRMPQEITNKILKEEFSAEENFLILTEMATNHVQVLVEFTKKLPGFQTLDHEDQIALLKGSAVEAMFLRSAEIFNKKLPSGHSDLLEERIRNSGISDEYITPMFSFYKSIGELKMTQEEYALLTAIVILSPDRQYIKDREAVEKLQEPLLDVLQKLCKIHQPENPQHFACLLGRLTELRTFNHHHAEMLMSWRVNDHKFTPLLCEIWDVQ
# assayProtocol: Radioligand binding assay (scintillation proximity, radioligand displacement)
# conditionContext: 40 nM GST-FXR LBD on SPA beads, test compound 6×10^−9 M to 2.5×10^−5 M, read-out: h-IC50 Binding
parameterMeasured: IC50 (nM)

[
  {
    "compound": "O=C(O)C1(Oc2ccc(OCC(C3CCCCC3)n3c(-c4ccc(Cl)cc4)nc4cc(F)c(F)cc43)nc2)CC1 (single isomer, unassigned; (-)) [Example 51]",
    "IC50 / nM": 300
  },
  {
    "compound": "Fc1cc2nc(-c3ccc(Cl)cc3)n(C(COc3ccccc3)C3CCCCC3)c2cc1F (stereo not shown)",
    "IC50 / nM": 100
  },
  {
    "compound": "Cc1cc(Cl)ccc1-c1nc2cc(F)c(F)cc2n1C(COc1c(F)cc(C(=O)O)cc1F)C1CCCCC1 (stereo not shown) [Example 124]",
    "IC50 / nM": 3
  }
]

[a] COc1ccc(-c2nc3cc(F)c(F)cc3n2C(CCc2ccc(C(=O)O)cc2)C2CCCCC2)c(OC)n1 (stereo not shown) [Example 145]
[b] CC(C)(Oc1cccc(OCC(C2CCCCC2)n2c(-c3ccc(Cl)cc3)nc3cc(F)c(F)cc32)c1)C(=O)O (stereo not shown)
[c] O=C(O)c1cc(F)c(OCC(C2CCCCC2)n2c(-c3ccc(Cl)cc3)nc3cc(F)c(F)cc32)c(F)c1 (single isomer, unassigned; (+)) [Example 87]
Asked: Returns the items ordered by IC50, from maximum to minimum. // ordering of labels required in reply
Given back: b, c, a

[a] COc1ccc(-c2nc3cc(F)c(F)cc3n2C(COc2c(F)cc(-c3nnn[nH]3)cc2F)C2CCCCC2)c(OC)n1 (stereo not shown)
[b] COc1ccc(-c2nc3cc(F)c(F)cc3n2C(COc2c(F)cc(C(=O)O)cc2F)C2CCCCC2)c(OC)n1 (single isomer, unassigned; (+)) [Example 97]
Asked: Given the listed records, identify the one among a and b with higher IC50. Answer by stating the label of the chosen item.
Given back: b
(b: 50 nM, a: 20 nM)

[a] O=C(O)c1cnc(OCC(C2CCCCC2)n2c(-c3ccc(Cl)cc3)nc3cc(F)c(F)cc32)c(Cl)c1 (single isomer, unassigned; (+)) [Example 23]
[b] COc1ccc(-c2nc3cc(F)c(F)cc3n2C(CCc2ccc(C(=O)O)cc2)C2CCCCC2)c(OC)n1 (single isomer, unassigned; (-)) [Example 146]
[c] O=C(O)c1ccc(CCC(C2CCCCC2)n2c(-c3ccccc3)nc3cc(F)c(F)cc32)cc1 (single isomer, unassigned; (-)) [Example 143]
Asked: Hi! Can you put these in order of IC50, lowest number first? // format: requested-order list of labels
Given back: b, c, a

====

# testSystem: FXR ligand binding domain (GST-FXR LBD fusion protein, human FXR aa 193-473) (Homo sapiens)
# Construct: fused on or other part: Glutathione-S-transferase (GST) fused N-terminally to the FXR LBD, used to capture the protein on glutathione SPA beads
# assayProtocol: Radioligand binding assay (scintillation proximity, radioligand displacement)
# conditionContext: 40 nM GST-FXR LBD on SPA beads, test compound 6×10^−9 M to 2.5×10^−5 M, read-out: h-IC50 Binding
# Description: The following tests were carried out in order to determine the activity of the compounds of formula (I). […] Binding of test substances to the FXR ligand binding domain was assessed in a radioligand displacement assay. […] All binding assays were performed in 96-well plates and the amount of bound ligand was measured on a Packard TopCount using OptiPlates (Packard).
parameterMeasured: IC50 (nM)

Here are 3 compounds together with their reported answers.
[
  {
    "compound": "O=C(O)c1cc(F)c(OCC(C2CCCCC2)n2c(-c3ccc(Cl)cc3)nc3cc(F)c(F)cc32)c(Cl)c1 (single isomer, unassigned; (+)) [Example 78]",
    "parameterMeasured": "IC50",
    "result": 30
  },
  {
    "compound": "Cc1cc(-c2nnn[nH]2)cc(C)c1OCC(C1CCCCC1)n1c(-c2ccc(Cl)cc2)nc2ccccc21 (single isomer, unassigned; (-)) [Example 112]",
    "parameterMeasured": "IC50",
    "result": 110
  },
  {
    "compound": "CC(C)(Oc1ccc(OCC(C2CCCCC2)n2c(-c3ccc(Cl)cc3)nc3cc(F)c(F)cc32)c(F)c1)C(=O)O (stereo not shown)",
    "parameterMeasured": "IC50",
    "result": 100
  }
]

[1] COc1ccc(-c2nc3cc(F)c(F)cc3n2C(COc2ccc(C(=O)O)cc2F)C2CCCCC2)c(OC)n1 (stereo not shown)
[2] Cc1cc(C(=O)O)cc(C)c1OCC(C1CCCCC1)n1c(-c2ccc(Cl)cc2)nc2ccccc21 (single isomer, unassigned; (+)) [Example 107]
Asked: Response body: label of entry with the larger IC50; valid values 1 , 2 . Write down the label attached to your selection.
Given back: 1
(1: 100 nM, 2: 10 nM)

====

# testSystem: FXR ligand binding domain (GST-FXR LBD fusion protein, human FXR aa 193-473) (Homo sapiens, UniProt Q96RI1)
# Construct: fused on or other part: Glutathione-S-transferase (GST) fused N-terminally to the FXR LBD, used to capture the protein on glutathione SPA beads
# Sequence (Q96RI1 211-486 limits assumed): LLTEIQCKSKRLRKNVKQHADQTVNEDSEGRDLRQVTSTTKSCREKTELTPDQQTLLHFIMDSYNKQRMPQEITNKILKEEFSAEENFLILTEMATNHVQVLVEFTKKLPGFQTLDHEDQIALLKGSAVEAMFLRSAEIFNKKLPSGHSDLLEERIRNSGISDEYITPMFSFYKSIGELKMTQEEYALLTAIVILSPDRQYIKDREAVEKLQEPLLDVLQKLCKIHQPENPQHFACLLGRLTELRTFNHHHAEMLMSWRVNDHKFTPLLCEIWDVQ
# assayProtocol: Radioligand binding assay (scintillation proximity, radioligand displacement)
# conditionContext: 40 nM GST-FXR LBD on SPA beads, test compound 6×10^−9 M to 2.5×10^−5 M, read-out: h-IC50 Binding
pIC50: −log10 of the molar value.
parameterMeasured: pIC50

Solved entries (count: 4):
[
  {
    "compound": "Cc1cc(-c2nnn[nH]2)cc(C)c1OCC(C1CCCC1)n1c(-c2ccc(Cl)cc2)nc2cc(F)c(F)cc21 (stereo not shown)",
    "pIC50": 7.70
  },
  {
    "compound": "COc1ccc(-c2nc3cc(F)c(F)cc3n2C(COc2c(C)cc(-c3nnn[nH]3)cc2C)C2CCCCC2)c(OC)n1 (stereo not shown) [Example 99]",
    "pIC50": 8.70
  },
  {
    "compound": "O=C(O)c1cnc(OCC(C2CCCCC2)n2c(-c3ccc(Cl)cc3)nc3cc(F)c(F)cc32)c(Br)c1 (stereo not shown)",
    "pIC50": 7.22
  },
  {
    "compound": "O=C(O)c1cnc(OCC(C2CCCCC2)n2c(-c3ccc(Cl)cc3)nc3cc(F)c(F)cc32)c2ccsc12 (stereo not shown) [Example 26]",
    "pIC50": 7.70
  }
]

[P] O=C(O)c1cc(F)c(OCC(C2CCCCCC2)n2c(-c3ccc(Cl)cc3)nc3cc(F)c(F)cc32)c(F)c1 (stereo not shown) [Example 131]
[Q] O=C(O)c1ccc(OCC(C2CCCCC2)n2c(-c3ccc(Cl)cc3)nc3cc(F)c(F)cc32)nc1 (single isomer, unassigned; (-)) [Example 21]
[R] Fc1cc2nc(-c3ccc(Cl)cc3)n(C(COc3ccccc3F)C3CCCCC3)c2cc1F (stereo not shown)
Asked: Endpoint returns the given compounds ordered by ascending pIC50. Rank them, then answer with their labels in that order.
Given back: Q, R, P
(Q: 6.22, R: 7.40, P: 7.70)

====

# testSystem: FXR ligand binding domain (GST-FXR LBD fusion protein, human FXR aa 193-473) (Homo sapiens, UniProt Q96RI1)
# Construct: fused on or other part: Glutathione-S-transferase (GST) fused N-terminally to the FXR LBD, used to capture the protein on glutathione SPA beads
# Sequence (Q96RI1 211-486 limits assumed): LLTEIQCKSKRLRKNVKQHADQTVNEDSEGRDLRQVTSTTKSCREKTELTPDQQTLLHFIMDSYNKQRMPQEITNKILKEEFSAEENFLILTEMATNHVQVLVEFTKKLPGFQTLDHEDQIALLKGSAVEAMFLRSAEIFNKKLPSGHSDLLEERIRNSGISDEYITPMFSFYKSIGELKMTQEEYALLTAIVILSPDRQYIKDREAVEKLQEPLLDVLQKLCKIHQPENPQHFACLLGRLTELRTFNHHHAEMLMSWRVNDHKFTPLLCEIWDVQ
# assayProtocol: Radioligand binding assay (scintillation proximity, radioligand displacement)
# conditionContext: 40 nM GST-FXR LBD on SPA beads, test compound 6×10^−9 M to 2.5×10^−5 M, read-out: h-IC50 Binding
parameterMeasured: IC50 (nM)

[
  {
    "compound": "O=C(O)c1ccc(COCC(C2CCCCC2)n2c(-c3ccc(Cl)cc3)nc3cc(F)c(F)cc32)nc1 (stereo not shown)",
    "IC50 / nM": 2500
  },
  {
    "compound": "O=C(O)c1ccc(COCC(C2CCCCC2)n2c(-c3ccc(Cl)cc3)nc3cc(F)c(F)cc32)c(F)c1 (single isomer, unassigned; (-)) [Example 65]",
    "IC50 / nM": 200
  },
  {
    "compound": "Cc1cc(-c2nnn[nH]2)cc(C)c1OCC(C1CCC(F)(F)CC1)n1c(-c2ccc(Cl)cc2)nc2cc(F)c(F)cc21 (stereo not shown)",
    "IC50 / nM": 10
  },
  {
    "compound": "COc1cc(C(=O)O)ccc1COCC(C1CCCCC1)n1c(-c2ccc(Cl)cc2)nc2cc(F)c(F)cc21 (stereo not shown)",
    "IC50 / nM": 500
  },
  {
    "compound": "O=C(O)c1cccc(OCC(C2CCCCC2)n2c(-c3ccc(Cl)cc3)nc3cc(F)c(F)cc32)c1 (stereo not shown)",
    "IC50 / nM": 70
  }
]

[a] O=C(O)c1ccc(COCC(C2CCCCC2)n2c(-c3ccc(Cl)cc3)nc3cc(F)c(F)cc32)cc1 (stereo not shown) [Example 58]
[b] Cc1cc(C(=O)O)ccc1OCC(C1CCCCC1)n1c(-c2ccc(Cl)cc2)nc2cc(F)c(F)cc21 (stereo not shown) [Example 11]
Asked: Of a and b , which shows the smaller IC50 value? To answer, give the label that identifies your chosen option.
Given back: b
(b: 20 nM, a: 100 nM)
